B1: glmS ribozyme (parent)
chain: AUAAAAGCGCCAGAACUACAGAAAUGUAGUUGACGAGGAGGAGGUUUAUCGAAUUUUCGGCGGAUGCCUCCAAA

Variants of: B1
Assay: self-cleavage kobs at 10000 uM GlcN6P; higher = faster cleavage; RNA array
Settings: with glucosamine-6-phosphate
Variants at the floor of the assay were thinned out.
measured.attribute: self-cleavage kobs at 10000 uM GlcN6P (s⁻¹)
Just the number in s⁻¹, nothing appended.

For A52C C68U C70U , write its self-cleavage kobs at 10000 uM GlcN6P. 3.87e-05

For C16G U45G U46A , write its self-cleavage kobs at 10000 uM GlcN6P. 0.000584

For A53C U57C , write its self-cleavage kobs at 10000 uM GlcN6P. 4.63e-05

For G9A C16U , write its self-cleavage kobs at 10000 uM GlcN6P. 3.09e-05

For A14C U31C G41A , write its self-cleavage kobs at 10000 uM GlcN6P. 7.28e-05

For A6U A12U A53G C67G , write its self-cleavage kobs at 10000 uM GlcN6P. 8.82e-05

For U47A U56C , write its self-cleavage kobs at 10000 uM GlcN6P. 0.00257

For A53C U57G , write its self-cleavage kobs at 10000 uM GlcN6P. 0.000339

For G32A U47G , write its self-cleavage kobs at 10000 uM GlcN6P. 0.000806

For G43A U55G , write its self-cleavage kobs at 10000 uM GlcN6P. 5.21e-05

For A12G U69A , write its self-cleavage kobs at 10000 uM GlcN6P. 9.85e-05

Values were extracted from the supplement of paper PMC7125110.
